# protocolNotes: protein stability index of a GFP-peptide fusion (GPS, HEK-293T) (PSI 1-6); higher = more stable;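 note: 24-mer peptide tiles fused after GFP, lentivirally expressed, FACS-sorted into six equal bins by GFP/DsRed ratio, decoded by Illumina sequencing, PSI is the read-weighted mean bin number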
# conditionContext: treatment: DMSO; c terminus: a fixed tail appended
endpoint: protein stability index
Give bare numbers.

[
  {
    "sequenceText": "ANYIDGYRKQNAYIATQGSLPETF [PTPRD]",
    "val": 2.94
  },
  {
    "sequenceText": "RASRLQAPVLVAAPHSTFFDPIVL [LPCAT4]",
    "val": 2.6
  },
  {
    "sequenceText": "SNSQPTNESHSIKAILKNISVLAF [SLC29A1]",
    "val": 2.45
  }
]

Hey, quick one: what's protein stability index for each of these?
1. TLNILLYEAQDGRGPDNALLEATG [KCTD10]
2. LVKHKRIHSREKRGDSVKVENPST [ZNF649]
3. KCGIHSMFPLHLAALNAHSDCCRK [ANKRD44]
4. LVALAEQHAVQELTKAATSGVGID [RHOBTB1]
5. MMEKILGPIPSHMIHRTRKQKYFY [CLK3]
6. MTTTFLQTSSSTFGGGSTRGGSLL [KRT15]
7. RALSDTTEELTVIKSSLKDEYQYS [SLC2A12]
8. QERPRPEPGRLGSSSPASVTTEQL [PXN]

Result:
1: 2.92; 2: 4.41; 3: 2.36; 4: 4.08; 5: 2.27; 6: 2.8; 7: 4.54; 8: 5.29

# return protein stability index for each item in the list
1. GQFVFARDAKAAMAGRLMIRKLVA [AASDHPPT]
2. PHGTLRVCTISSTGPLQPQPKKPE [PKD2L1]
3. SRFSSSTEQSSASRLMRRHKRRRR [DVL3]
4. MAVRLAGGLQKMVALLNKTNVKFL [CTNNB1]
5. ISLVKREHDFLDRDAIEALCRRLN [DLC1]
6. FVEATRKWKVGIPSDPLVSIGALI [ALDH8A1]
7. RYMLTRDYLTVKVWDLNMEARPIE [PPP2R2C]
8. GPLPQSFDKEWVAKQTKRMLDMKV [COX4I1]

Result:
1: 2.08; 2: 4.42; 3: 5.17; 4: 2.87; 5: 2.69; 6: 2.34; 7: 2.51; 8: 3.86

Hi! Can you tell me protein stability index for each of these sequences?
1. EARSYLSEEMIAEFKAAFDMFDAD [TNNC2]
2. ENYLEYRQVPGSDPACYEFLWGPR [MAGEA3]
3. DLVTGGELFEDIVAREYYSEADAS [CAMK2B]
4. LYVSGLPKTMSQKEMEQLFSQYGR [ELAVL3]
5. GGYEKASKRMTFQMPKFDLGPLLS [MYOZ1]

Result:
[4.16, 3.12, 4.73, 2.55, 2.54]

Hi! Can you tell me protein stability index for each of these sequences?
1. LRLENSSLFSQALKDEEAKVLQLT [CCDC89]
2. KDTVICAMKITQEPQGLGYWEAWR [SPACA3]

Result:
3.6
2.27

Please report protein stability index for every entry that follows.
1. ESYESMELACPAERSGHVAVSDGR [KLHDC2]
2. LPSLGCRTSCSSRPCVPPSCHGYT [KRT34]
3. DTLRRRLLAPEAGSHPQQTQKLEE [TOR1AIP2]
4. KVMIHPDPERRPSAMALVKHSVLL [WEE1]
5. PSPAPAVAAAAAATTAATAAATTT [SNAP91]

Result:
5.08
2.32
5.35
2.22
5.33

Could I get protein stability index for every one of these entries?
1. FKDKSTYIESSTKVYDDMAFRYLS [CLPTM1]
2. WREFHYIQSKLGIVSLLLGTIHAL [STEAP1]
3. SSSASYGGGFGGGSCQLGGGRGVS [KRT13]

Result:
1. 2.65
2. 2.96
3. 3.71

Give one value of protein stability index per listed sequence.
1. QFRVVRCWKMLSPGFDSSVYSDLC [ADAMTSL2]
2. ALAHCHQHGLVLRDLKLCRFVFAD [TRIB3]
3. ERMRNSRDRLLNRYRQAGSSGPGN [RPAIN]
4. VFPPEVPISEKAKDLILRFCIDSE [STK38L]
5. ILKRLLKEQHLWDVDLLDSKVIEI [DLC1]
6. PSLGRVLPDPREACGSSSYVASIV [RBMY1A1]
7. MSQRNLNAKTEQGPTGVTMTSNPI [CDK11A]
8. KIKVRFSFFLQIYLIMIFLGLYIN [HACD3]

Result:
[2.5, 2.44, 4.12, 3.06, 2.44, 2.63, 4.53, 3]

For each listed entry, give its protein stability index.
1. RGPDNALLEATGGAAGRSHHLDED [KCTD10]
2. TAGQERYRAITSAYYRGAVGALLV [RAB11A]

Result:
[5.54, 2.22]

---

# protocolNotes: protein stability index of a GFP-peptide fusion (GPS, HEK-293T) (PSI 1-6); higher = more stable
# conditionContext: treatment: DMSO; c terminus: a fixed tail appended
// label = yes if protein stability index is not less than 3, otherwise no

[
  {
    "sequenceText": "LSLESSPDAPDHTSETSHSPLYAD [PLEKHN1]",
    "label": "yes"
  },
  {
    "sequenceText": "AEPAMPGRLYVHPDSPATGAHWMR [TBX5]",
    "label": "yes"
  },
  {
    "sequenceText": "SGIPEVKCYLNGVKVPGIVRLRTL [CLCN6]",
    "label": "no"
  },
  {
    "sequenceText": "IDYYTETKILQERAVLGANDPEKN [NSDHL]",
    "label": "yes"
  },
  {
    "sequenceText": "NFVYNSPRGYFHTFAGDTCQVALN [WASL]",
    "label": "no"
  },
  {
    "sequenceText": "NETVNSIFAQGAPRSSLAESFFVD [ADAMTSL2]",
    "label": "yes"
  }
]

Request: Does the reported protein stability index for LGKGAFSVVRRCVKVLAGQEYAAK [CAMK2A] fall at or above the 3 mark?
Result: no

Request: Textbook exercise: given the entry GALLAPIRVLLAFIVLFLLWPFAW [LPCAT4] , state whether its protein stability index is greater than or equal to 3.
Result: no

Request: Quick check: does LRGLPGERGTPGLPGPKGDDGKLG [SCARA5] have protein stability index greater than or equal to 3?
Result: yes

Request: Decide: protein stability index of RLQQELEQQRCLLLARLRELEQQI [TRIM15] >= 3?
Result: yes

Request: Answer whether protein stability index of GLKASLERLQLEYVDVVFANRPDP [KCNAB2] is greater than or equal to 3.
Result: no

Request: API: above_or_equal(metric=protein stability index, cutoff=3) for item NLQCLYCEKTFRDKNTLKDHMRKK [ZNF277]
Result: yes

Request: Evaluate QETRGELQCRSPPRLHGAKAILDA [TBC1D10A] : protein stability index at minimum 3?
Result: yes

---

# protocolNotes: protein stability index of a GFP-peptide fusion (GPS, HEK-293T) (PSI 1-6); higher = more stable
# conditionContext: treatment: DMSO; c terminus: a fixed tail appended
Record form. Attribute: protein stability index. Fill in for each entry.
Give bare numbers.

Past entries and their recorded results:
[
  {
    "sequenceText": "ENCLSASAAQTDPTTGYRRLLRFS [LOXL2]",
    "endpoint": "protein stability index",
    "val": 3.34
  },
  {
    "sequenceText": "LPLSPGVLSSTPDHSFSLELGSEV [ATF4]",
    "endpoint": "protein stability index",
    "val": 3.72
  },
  {
    "sequenceText": "SELEDLTEPEQRELKTKLTKLEAE [TPD52L3]",
    "endpoint": "protein stability index",
    "val": 5.31
  },
  {
    "sequenceText": "GCWAWPLAGLSVGRSSLTACSLPL [PXN]",
    "endpoint": "protein stability index",
    "val": 1.99
  },
  {
    "sequenceText": "ILNSMNSLRKSNTLCDVTLRVEQK [KLHL12]",
    "endpoint": "protein stability index",
    "val": 2.65
  },
  {
    "sequenceText": "HRRRSRERGPYRTRKHAHHCHKRR [CLK3]",
    "endpoint": "protein stability index",
    "val": 4.49
  },
  {
    "sequenceText": "ALATVSLLSLVTFTFLSAKCLQGN [PCDHGC5]",
    "endpoint": "protein stability index",
    "val": 3.2
  },
  {
    "sequenceText": "AKPRATWTLKLDGNLQLDCLAQGW [RTP4]",
    "endpoint": "protein stability index",
    "val": 2.17
  },
  {
    "sequenceText": "GPVPGTPGLPGSTGNPKSEEPEVP [SPNS1]",
    "endpoint": "protein stability index",
    "val": 5.55
  },
  {
    "sequenceText": "NTDVSMENMVTVGFFSCMGTLCIG [KCNK9]",
    "endpoint": "protein stability index",
    "val": 2.81
  }
]

Need protein stability index for each of these sequences.
1. EPDLRHLVLVVNTLRRIQASMAPA [SERTAD1]
2. QSEPSEQDGVLDLSTKKSPCAGST [LCOR]
3. IGVILFSSAVYFAEADEPTTHFQS [KCNA4]
4. DEEEDFFLRGPSGPRFGPRNDKIK [VAMP4]
5. CGPIAGSRQALSFEVPPCNYDPEK
6. IDCKFNAESQGCNHEEDAGVRCNT [LOXL2]
7. PLVYKAIQQGINAVNQEAMNNAQR [ACSBG2]

Result:
1. 2.66
2. 5.39
3. 2.36
4. 4.53
5. 4.24
6. 5.13
7. 3.33

Provide reported protein stability index for each item, in the same order as listed.
1. SSPPQGASPVPESSLTADLLSVDA [SNAP91]
2. EVKPKDIIHVVKDQLIGQGIIVKD [TENT5D]
3. GGLGGGYGGGLGGGFGGGFAGGFV [KRT13]
4. LYGFLLTFGFITMTPQLFINYKLK [CLPTM1]
5. QGEYSRKLEERFMTLAANHELMLR [CCDC89]
6. DVFSENLLADVKGARAALNEIESR [STX11]

Result:
[5.28, 3.52, 2.16, 3.12, 3.15, 4.22]

Request: Query: protein stability index; subject: SDVVDWLYHNVEGFTDRREARKYA [DVL3]
Result: 3.23
